# assay notes: Single layer film element contrast (gamma) reduction by DI(A)R couplers, KODAK FLEXICOLOR C-41
# applied conditions: DIR tested at 0.055 mmol/m^2, relative to non-inhibitor containing check
Task for the reader: assign each of the following compounds its reported % Contrast Reduction.
Answers are plain numbers, in %.

{"compound": "CCCCCCCCCCCCCCOc1ccccc1NC(=O)c1cc(Oc2ccc(CSc3nnnn3Cc3ccc(OC)cc3)cc2[N+](=O)[O-])c2ccccc2c1O", "experimental endpoint": "% Contrast Reduction", "value unit": "%", "value measured": -55.4}
{"compound": "CCCCCCCCCCCCOc1ccc(C)cc1NC(=O)c1cc(Oc2ccc(CSc3nnnn3CC(=O)OCCC)cc2[N+](=O)[O-])c2ccccc2c1O", "experimental endpoint": "% Contrast Reduction", "value unit": "%", "value measured": -24.5}
{"compound": "CCCOC(=O)Cn1nnnc1SC1C(=O)N(c2ccc(NC(=O)C(CC)Oc3ccc(C(C)(C)CC)cc3C(C)(C)CC)cc2)N=C1N1CCCC1 (stereo not drawn)", "experimental endpoint": "% Contrast Reduction", "value unit": "%", "value measured": -22.6}
{"compound": "CCCCCCCCCCCCCCCCS(=O)(=O)Nc1ccc(Cl)c(NC(=O)C(Oc2ccc([N+](=O)[O-])cc2CN(CC)C(=O)Sc2nnnn2CC(=O)OCCC)C(=O)C(C)(C)C)c1 (stereo not drawn)", "experimental endpoint": "% Contrast Reduction", "value unit": "%", "value measured": -25.3}

List % Contrast Reduction for every entry below, keeping the order given.
1. CCCCCCCCCCC(Oc1ccc(S(=O)(=O)c2ccc(O)cc2)cc1)C(=O)Nc1ccc(N2N=C(C)C(n3nc(C)c(C(=O)OCCCCCC)n3)C2=O)cc1 (stereo not drawn)
2. CCCCCCCCCCCCCCCCS(=O)(=O)Nc1cc(CSc2nnnn2CC(=O)OCCC)ccc1Oc1cc(C(N)=O)c(O)c2ccccc12

Outgoing:
-50.1
-34.5
